Recorded pEC50 for the following binders
- system tested: T1, recombinant human IL-7Rα-His6-Fc (human, UniProt P16871 21-239)
- T1 construct: also called hIL-7R; not shown: His6 tag; Fc (captured by anti-human IgG Fc)
- T1 chain: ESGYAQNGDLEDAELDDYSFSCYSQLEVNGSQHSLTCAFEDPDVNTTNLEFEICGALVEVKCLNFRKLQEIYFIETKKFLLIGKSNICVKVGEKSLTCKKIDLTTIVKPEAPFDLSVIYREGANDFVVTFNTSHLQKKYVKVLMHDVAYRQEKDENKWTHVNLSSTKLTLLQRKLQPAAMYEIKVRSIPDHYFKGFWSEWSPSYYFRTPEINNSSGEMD
- assay overview: IL-7/IL-7R neutralisation ELISA; inhibition of IL-7 binding to IL-7R
In textbook form, pEC50 equals minus log to base ten of the concentration in mol/L.

Solved entries:
ID-A8U (VHH, V7R-2E9 with 44 to 47 EREF to GLEW; produced from E. coli) VHH: EVQLVESGGGLVQAGGSLRLSCESSISTFSSDAMGWFRQAPGKGLEWLAAIGWSGAVTHYSDSVQGRFTISRDNAKNTVYLQMNSLKSEDTGRYYCAEDYDTDVWQYWGQGTQVTVSS
9.22
ID-A14U (VHH, V7R-2E9 with Q65K; produced from E. coli) VHH: EVQLVESGGGLVQAGGSLRLSCESSISTFSSDAMGWFRQAPGKEREFLAAIGWSGAVTHYSDSVKGRFTISRDNAKNTVYLQMNSLKSEDTGRYYCAEDYDTDVWQYWGQGTQVTVSS
9.82
ID-A12U (VHH, V7R-2E9 with L48V; produced from E. coli) VHH: EVQLVESGGGLVQAGGSLRLSCESSISTFSSDAMGWFRQAPGKEREFVAAIGWSGAVTHYSDSVQGRFTISRDNAKNTVYLQMNSLKSEDTGRYYCAEDYDTDVWQYWGQGTQVTVSS
9.75
ID-A17U (VHH, V7R-2E9 with S88A; produced from E. coli) VHH: EVQLVESGGGLVQAGGSLRLSCESSISTFSSDAMGWFRQAPGKEREFLAAIGWSGAVTHYSDSVQGRFTISRDNAKNTVYLQMNSLKAEDTGRYYCAEDYDTDVWQYWGQGTQVTVSS
9.31
ID-A20U (VHH, V7R-2E9 with R93V; produced from E. coli) VHH: EVQLVESGGGLVQAGGSLRLSCESSISTFSSDAMGWFRQAPGKEREFLAAIGWSGAVTHYSDSVQGRFTISRDNAKNTVYLQMNSLKSEDTGVYYCAEDYDTDVWQYWGQGTQVTVSS
9.86

Now let's try a different one.
input: Give pEC50 for the following binder: ID-A18U (VHH, V7R-2E9 with S88T; produced from E. coli) VHH: EVQLVESGGGLVQAGGSLRLSCESSISTFSSDAMGWFRQAPGKEREFLAAIGWSGAVTHYSDSVQGRFTISRDNAKNTVYLQMNSLKTEDTGRYYCAEDYDTDVWQYWGQGTQVTVSS
output: 9.67
